- Tested on: cynomolgus monkey CD98 ECD
- Sequence (as listed by the source): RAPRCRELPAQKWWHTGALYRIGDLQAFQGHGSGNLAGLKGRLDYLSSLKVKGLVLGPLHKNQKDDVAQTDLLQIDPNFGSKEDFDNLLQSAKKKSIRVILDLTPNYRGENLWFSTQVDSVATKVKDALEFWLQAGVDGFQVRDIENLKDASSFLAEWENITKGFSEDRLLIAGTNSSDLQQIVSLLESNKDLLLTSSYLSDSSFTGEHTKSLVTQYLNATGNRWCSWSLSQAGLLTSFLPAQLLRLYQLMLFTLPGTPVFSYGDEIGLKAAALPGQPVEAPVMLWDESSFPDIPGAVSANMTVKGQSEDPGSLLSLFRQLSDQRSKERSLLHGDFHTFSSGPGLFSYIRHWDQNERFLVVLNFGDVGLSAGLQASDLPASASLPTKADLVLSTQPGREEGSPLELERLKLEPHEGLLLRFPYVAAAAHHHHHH
- assayText: Biacore surface plasmon resonance binding kinetics (anti-Fc capture)
- particulars: cyCD98 ECD
metricName: ka (M⁻¹ s⁻¹)
Give the number; M⁻¹ s⁻¹ is assumed, so skip it.

// worked examples, ka included
huAb15v1 (antibody, V domains shown) VH: EVQLVESGGGVVQPGRSLRLSCAASGFTFSDYTMAWVRQAPGKGLEWVATIIYSGRGTYYRDAVKGRFTISRDNSKSTLYLQMNSLRAEDTAVYYCARQSDHTYYYWGYFDYWGQGTMVTVSS VL: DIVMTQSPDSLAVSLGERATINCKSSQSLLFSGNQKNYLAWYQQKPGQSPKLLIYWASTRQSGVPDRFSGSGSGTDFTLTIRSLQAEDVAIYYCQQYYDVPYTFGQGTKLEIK :: 26000
huAb107: "heavy chain variable sequence of huAb107 is provided in SEQ ID NO: 114"; "light chain variable sequence ... in SEQ ID NO: 112" (antibody, V domains shown) VH: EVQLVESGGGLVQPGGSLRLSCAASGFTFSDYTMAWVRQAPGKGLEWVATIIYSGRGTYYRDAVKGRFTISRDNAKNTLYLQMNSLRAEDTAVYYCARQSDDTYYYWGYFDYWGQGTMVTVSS VL: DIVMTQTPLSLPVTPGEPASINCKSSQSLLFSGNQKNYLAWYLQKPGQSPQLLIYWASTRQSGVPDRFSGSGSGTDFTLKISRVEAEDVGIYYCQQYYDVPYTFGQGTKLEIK :: 33000
huAb103: "heavy chain variable sequence of huAb103 is provided in SEQ ID NO: 109"; "light chain variable sequence ... in SEQ ID NO: 107" (antibody, V domains shown) VH: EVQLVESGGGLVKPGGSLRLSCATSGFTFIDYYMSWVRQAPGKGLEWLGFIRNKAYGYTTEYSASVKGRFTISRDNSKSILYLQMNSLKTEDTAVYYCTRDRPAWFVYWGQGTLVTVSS VL: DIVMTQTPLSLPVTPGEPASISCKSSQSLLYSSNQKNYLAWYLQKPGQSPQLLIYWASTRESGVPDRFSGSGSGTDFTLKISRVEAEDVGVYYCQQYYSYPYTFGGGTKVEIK :: 31000

In the following, a different molecule is considered.
If you can, please state the reported ka value of huAb15v6 (antibody, V domains shown) VH: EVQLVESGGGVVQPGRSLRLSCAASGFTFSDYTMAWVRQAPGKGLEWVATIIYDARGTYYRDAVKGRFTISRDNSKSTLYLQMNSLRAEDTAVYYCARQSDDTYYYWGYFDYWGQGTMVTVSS VL: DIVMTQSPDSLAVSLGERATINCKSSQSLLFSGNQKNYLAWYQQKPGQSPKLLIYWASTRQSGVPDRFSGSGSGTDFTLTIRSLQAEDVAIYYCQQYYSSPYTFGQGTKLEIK .
14000
